Data credit: patent US20120269817A1

Target: T1, human tissue factor pathway inhibitor (TFPI) (human, UniProt P10646 29-304, limits assumed)
T1 construct: Bought protein; also called human TFPI; hTFPI
T1 sequence (looked up): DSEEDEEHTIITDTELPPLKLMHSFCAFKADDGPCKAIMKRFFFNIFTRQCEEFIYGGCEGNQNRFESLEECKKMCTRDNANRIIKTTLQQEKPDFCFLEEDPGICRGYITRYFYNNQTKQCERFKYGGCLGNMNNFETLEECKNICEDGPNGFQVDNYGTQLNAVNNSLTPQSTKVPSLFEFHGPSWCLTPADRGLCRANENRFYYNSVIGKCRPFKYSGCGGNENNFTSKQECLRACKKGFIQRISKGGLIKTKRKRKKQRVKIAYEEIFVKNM
Experiment: ELISA, Fab lysate on coated human TFPI
Method: To select antibody clones that bind to human TFPI, Fab genes of the phage clones from the second and third round of panning were subcloned into a bacterial expression vector and expressed in E. coli strain TG1. The bacterial lysate was added to the wells of the human TFPI-coated Maxisorp plates. […] The cross reactivity of the anti-human TFPI antibodies to mouse TFPI was determined by a similar mouse TFPI-binding ELISA. […]
PROPERTY: binding result

binder="TP-3A2 Fab (Fab, V domains shown, Human Fab from HuCal Gold, expressed in E. coli TG1) VH: QVQLVESGGGLVQPGGSLRLSCAASGFTFSNYYLSWVRQAPGKGLEWVSGISYNGSSTNYADSVKGRFTISRDNSKNTLYLQMNSLRAEDTAVYYCARMWRYSLGADSWGQGTLVTVSS VL: DIELTQPPSVSVAPGQTARISCSGDNIGSRYAYWYQQKPGQAPVVVIYDDSDRPSGIPERFSGSNSGNTATLTISGTQAEDEADYYCAAYTFYARTVFGGGTKLTVLG" property="binding result" result=binds
binder="TP-2G2 Fab (Fab, V domains shown, Human Fab from HuCal Gold, expressed in E. coli TG1) VH: QVQLVESGGGLVQPGGSLRLSCAASGFTFSSYAMNWVRQAPGKGLEWVSAILSDGSSTSYADSVKGRFTISRDNSKNTLYLQMNSLRAEDTAVYYCARYPDWGWYTDVWGQGTLVTVSS VL: DIELTQPPSVSVAPGQTARISCSGDNIRKFYVHWYQQKPGQAPVLVIYGTNKRPSGIPERFSGSNSGNTATLTISGTQAEDEADYYCQSYDSKFNTVFGGGTKLTVLG" property="binding result" result=binds
binder="TP-3E1 Fab (Fab, V domains shown, Human Fab from HuCal Gold, expressed in E. coli TG1) VH: QVQLVESGGGLVQPGGSLRLSCAASGFTFSNYAMTWVRQAPGKGLEWVSVISSVGSNTYYADSVKGRFTISRDNSKNTLYLQMNSLRAEDTAVYYCARPTKAGRTWWWGPYMDVWGQGTLVTVSS VL: DIELTQPPSVSVAPGQTARISCSGDNIGSYYAYWYQQKPGQAPVLVIYDDSNRPSGIPERFSGSNSGNTATLTISGTQAEDEADYYCQSYDSTGLLVFGGGTKLTVLG" property="binding result" result=binds
